Test system: SN12C
Assay: NCI tumour cell line growth inhibition, 48 h
The source made the active and inactive calls. Rule as the data show it: active = GI50 up to about 1.1 µM and inactive = higher.
Thanks in advance; please answer with one of these: t = active, f = inactive

compound | study_target | class_name
COc1ccc(CNc2nc(NC3CCCCC3)nc(NC3CCCCC3)n2)cc1 | SN12C | f
Clc1ncc(C(Cl)(Cl)Cl)nc1-c1ccccc1 | SN12C | f
Nc1ccn(C=C=CCO)c(=O)n1 | SN12C | f
COC(=O)[C@H](Cc1c[nH]c2ccccc12)NC(=O)c1ccccc1I | SN12C | f
N#Cc1cc2c(n(C3OC(CO)C(O)C(O)C3O)c1=S)CCCCCC2 (stereo unspecified) | SN12C | f
CCCC(=O)OC[n+]1ccc2c(C)c3[nH]c4ccc(OC)cc4c3c(C)c2c1 | SN12C | t
C=C(Cl)C(Cl)(CBr)CCC(Cl)C(C)(C)Cl (stereo unspecified) | SN12C | f
O=C1C2C(C(=O)N1OS(=O)(=O)c1ccccc1)N(Cc1ccccc1)C(=O)N2Cc1ccccc1 (stereo unspecified) | SN12C | f

Challenge: Please indicate how the test categorized COc1ccc(/C=N/n2c(=O)[nH]c3ccccc3c2=O)cc1 .
Response given: f

Challenge: Field: outcome | Entry: C[C@@H](CC(=O)OCc1ccccc1)OC1OC(COC(=O)C(C)(C)C)C(OC(=O)C(C)(C)C)C(OC(=O)C(C)(C)C)C1OC(=O)C(C)(C)C (stereo partly specified)
Response given: f

Challenge: Please let me know the test result on file for CCCCn1c2c(n(CCCC)c1=S)-c1c(n(CCCC)c(=S)n1CCCC)SSSS2 .
Response given: f

Challenge: Give the logged outcome of this assay for the following compound: N#Cc1nc(CCc2nc(C#N)c(N)o2)oc1N
Response given: f

---

System: OVCAR-5
Assay: NCI tumour cell line growth inhibition, 48 h
Calls of active or inactive are those of the source. Rule as the data show it: active = GI50 up to about 1.1 µM and inactive = higher.
Below, each entry is listed alongside its reported GI50.

# annotated cases, reported GI50 shown
molecule | GI50
Cc1csc(NNC(N)=O)n1 | > 100 µM (inactive)
CC(C)CCC1CC2C(=O)N(c3ccccc3)C(=O)C2c2[nH]c3ccccc3c21 (stereo not given) | 17.5 µM (inactive)

Challenge: Give OVCAR-5 GI50 for COc1ccc(C2SC(=N)Nc3c2c(C)nn3C(=O)c2ccncc2)cc1 (stereo not given)
Response given: > 100 µM (inactive)

Challenge: I'm curious: which GI50 was measured for CCCCn1c2c(n(CCCC)c1=S)-c1c(n(CCCC)c(=S)n1CCCC)SSSS2 tested on OVCAR-5?
Response given: 0.362 µM (active)

Challenge: GET /values?readout=GI50&system=OVCAR-5&item= COc1cccc2c1C(CO)N1C(C#N)C3CC(C(=O)O)C(C1C2)N3C (stereo not given)
Response given: 2.85 µM (inactive)

---

System: 786-0
Experiment: NCI tumour cell line growth inhibition, 48 h
Calls of active or inactive are those of the source. No stated cut-off is given here; in the data, active = GI50 up to about 1.1 µM and inactive = higher.
In this exercise, the only acceptable responses are active, inactive

Field: example entries. Status: answers known.
compound | study_target | class_name
OC1(c2ccccc2)CSc2ncnn21 (centres undefined) | 786-0 | inactive
COc1ccc(C=O)cc1Oc1ccc(C[C@H]2c3c(cc(OC)c4c3Oc3cc5c(cc3O4)CCN(C)C5=O)CCN2C)cc1 | 786-0 | inactive
Cc1cccc(C)c1NC(=O)C(=O)C1C(=O)NC(=O)NC1=O | 786-0 | inactive

Query compound follows.
Challenge: Just curious, what result did CCOc1cc(C2CC(c3ccc(NS(=O)(=O)c4cc([N+](=O)[O-])ccc4C)cc3)=NN2S(=O)(=O)c2cc([N+](=O)[O-])ccc2C)ccc1O (centres undefined) get here?
Response given: inactive
